Molecular target: Dimeric Human Ang-2FD conjugated to human IgG1 (human)
Sequence (chain, as listed by the source limits assumed): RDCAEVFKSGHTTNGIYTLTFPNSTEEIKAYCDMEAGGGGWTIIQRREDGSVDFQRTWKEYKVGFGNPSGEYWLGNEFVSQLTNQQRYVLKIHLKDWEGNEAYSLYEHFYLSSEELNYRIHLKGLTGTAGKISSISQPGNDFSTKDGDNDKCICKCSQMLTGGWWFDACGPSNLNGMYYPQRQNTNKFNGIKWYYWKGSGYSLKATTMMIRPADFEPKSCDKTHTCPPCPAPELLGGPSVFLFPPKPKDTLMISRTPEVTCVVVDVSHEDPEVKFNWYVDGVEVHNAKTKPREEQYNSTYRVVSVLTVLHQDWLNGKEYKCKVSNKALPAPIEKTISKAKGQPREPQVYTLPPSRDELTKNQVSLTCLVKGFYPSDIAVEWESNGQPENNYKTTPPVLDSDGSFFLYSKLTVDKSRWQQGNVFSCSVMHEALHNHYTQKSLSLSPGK
Test: SPR, human IgG1 antibody captured
Property: Kd; scope: individual binders
Give your result in nM as a bare value.

Answered examples (2):
Noted for H1H693P (antibody, human IgG1, V domains shown) VH: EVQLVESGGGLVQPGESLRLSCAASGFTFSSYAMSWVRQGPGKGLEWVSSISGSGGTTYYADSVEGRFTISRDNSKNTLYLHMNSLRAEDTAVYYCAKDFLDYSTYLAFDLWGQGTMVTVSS VL: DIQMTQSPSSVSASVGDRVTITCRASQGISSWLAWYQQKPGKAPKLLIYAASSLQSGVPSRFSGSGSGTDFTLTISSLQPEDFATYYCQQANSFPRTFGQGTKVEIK : its Kd reads 0.5

Noted for H1H732N (antibody, V domains shown) VH: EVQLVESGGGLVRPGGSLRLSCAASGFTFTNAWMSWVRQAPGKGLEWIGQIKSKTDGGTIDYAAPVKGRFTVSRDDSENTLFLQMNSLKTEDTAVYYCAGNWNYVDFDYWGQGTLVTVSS VL: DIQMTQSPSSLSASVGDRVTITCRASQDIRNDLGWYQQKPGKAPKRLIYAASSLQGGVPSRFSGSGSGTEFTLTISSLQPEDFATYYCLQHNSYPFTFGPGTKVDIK : its Kd reads 0.386

As a next step, examine the binder that follows.
Noted for H1H750N (antibody, V domains shown) VH: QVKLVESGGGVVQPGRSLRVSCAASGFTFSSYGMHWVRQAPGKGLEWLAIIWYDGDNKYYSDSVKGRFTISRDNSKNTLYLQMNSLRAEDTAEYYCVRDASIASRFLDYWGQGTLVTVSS VL: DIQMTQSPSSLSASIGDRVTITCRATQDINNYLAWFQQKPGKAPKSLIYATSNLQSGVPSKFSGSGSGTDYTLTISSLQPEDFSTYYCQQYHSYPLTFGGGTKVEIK : its Kd reads 0.164
